The measured values listed here are drawn from ChEMBL document CHEMBL2417430.

- System: A549
- protocol: Cytotoxicity against human A549 cells after 4 days by MTT assay
- Format: functional, cell-based
- measurement conditions: A549, 96 h
pIC50: −log10 of the molar value.
Think of 5 as a floor: if pIC50 stands on it or above, it is condition met; beneath it, condition not met.

{"smiles text": "C/C=C/C(=O)OCC1=C[C@H](O)[C@@H](C(C)C)CC1=O", "label class": "condition not met"}
{"smiles text": "C/C=C/C(=O)OCC1=C[C@H](O)[C@@H]2C[C@@H]2C1=O", "label class": "condition not met"}
{"smiles text": "CC(C)[C@H]1CC(=O)C(CO)=C[C@@H]1O", "label class": "condition not met"}
{"smiles text": "C/C=C/C(=O)OCC1=C[C@@H](O)CCC1=O", "label class": "condition not met"}

Now look at this one.
Confirm if pIC50 reported for the compound "C/C=C/C(=O)OCC1=C[C@H](O)[C@@H](c2ccccc2)CC1=O" is 5 or above.
condition met
